Data provenance: patent US20260258115A1

# Target entity: T1, RSV postfusion F (postF), subtype A (respiratory syncytial virus subtype A, UniProt P03420 26-513)
# T1 construct: also called Postfusion subtype A; F deltaFP
# Measurement protocol: BLI, IgG
Below: a set of entries, each annotated with reported Kd.
Value kind: Kd (µM)

[
  {
    "Binder": "ADI-25497 (antibody, V domains shown, full-length IgG) VH: EVQLLESGGGLVQPGGSLRLSCAASGFTFSSYWMSWVRQAPGKGLEWVANIKQDGSEKYYVDSVKGRFTISRDNAKNSLYLQMNSLRAEDTAVYYCARDGLLQYDFWSGYYDYWGQGTLVTVSS VL: EIVLTQSPSSLSASVGDRVTITCRASQGISSWLAWYQQKPEKAPKSLIYAASSLQSGVPSRFSGSGSGTDFTLTISSLQPEDFATYYCQQYNSYPFTFGPGTKVDIK",
    "Observed measurement": 0.0184
  },
  {
    "Binder": "ADI-19505 (antibody, V domains shown, full-length IgG) VH: QVQLVQSGAEVKKPGESLKISCKGSGYSFTNYWIGWVRQMPGKGLEWMGITYPGDSDTRYSPSFQGQVTISADKSISTAHLQWDSLKASDTAMYYCARLRCTGSICYDAFDIWGQGTTVTVSS VL: SYVLTQPLSVSVALGQTARITCGGNNIGSKNVHWYQQKPGQAPVLVIYRDNNRPSGIPERFSGSNSGNTATLTISRAQAGDEADYYCQVWDSSTGGDVFGAGTKVTVL",
    "Observed measurement": 0.00494
  }
]
